Test target: COVID S1 RBD Fc fusion (Antigen 1) (SARS-CoV-2), P0DTC2
Assay details: phage ELISA
Experimental setup: remark: other sources report otherwise
Measured specificity ELISA, percent binding relative to Acro S1, listed per entry.
Outcome measure: specificity ELISA, percent binding relative to Acro S1 (%)

# Binder, Measured result
records = [
    ("SARS-CoV-2 variant 1-31 (antibody, V domains shown) VH: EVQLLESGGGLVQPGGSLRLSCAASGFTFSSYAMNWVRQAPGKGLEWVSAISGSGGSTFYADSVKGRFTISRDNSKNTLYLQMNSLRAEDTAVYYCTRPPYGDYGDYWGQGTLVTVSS VL: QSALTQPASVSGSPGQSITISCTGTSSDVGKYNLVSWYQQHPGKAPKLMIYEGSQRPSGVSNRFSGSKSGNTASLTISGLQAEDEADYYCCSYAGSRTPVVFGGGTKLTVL", 4.3),
    ("SARS-CoV-2 variant 1-30 (antibody, V domains shown) VH: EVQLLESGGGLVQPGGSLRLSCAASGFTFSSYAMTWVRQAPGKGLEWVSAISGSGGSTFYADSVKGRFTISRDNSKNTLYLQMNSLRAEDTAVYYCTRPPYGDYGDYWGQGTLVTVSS VL: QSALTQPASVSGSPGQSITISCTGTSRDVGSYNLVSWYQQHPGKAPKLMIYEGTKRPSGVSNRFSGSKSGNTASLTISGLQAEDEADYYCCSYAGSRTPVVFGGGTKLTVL", 9.8),
    ("SARS-CoV-2 variant 1-32 (antibody, V domains shown) VH: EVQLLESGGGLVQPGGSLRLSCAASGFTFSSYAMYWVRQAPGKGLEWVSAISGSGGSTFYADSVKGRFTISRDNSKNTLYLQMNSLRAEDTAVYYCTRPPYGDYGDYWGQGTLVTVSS VL: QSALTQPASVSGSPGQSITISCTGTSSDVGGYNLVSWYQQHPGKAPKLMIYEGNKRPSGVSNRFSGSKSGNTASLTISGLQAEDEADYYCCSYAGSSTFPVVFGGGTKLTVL", 13.1),
    ("SARS-CoV-2 variant 1-28 (antibody, V domains shown) VH: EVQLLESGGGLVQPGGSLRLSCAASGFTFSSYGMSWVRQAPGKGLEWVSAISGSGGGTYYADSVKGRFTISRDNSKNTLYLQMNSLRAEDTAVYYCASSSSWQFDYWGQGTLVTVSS VL: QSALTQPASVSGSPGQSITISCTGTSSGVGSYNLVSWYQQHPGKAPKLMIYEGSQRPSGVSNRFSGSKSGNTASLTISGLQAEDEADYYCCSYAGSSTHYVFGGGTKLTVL", 113),
]
